# assay.system: T1, recombinant human TIGIT (Sino Biological) (human, UniProt Q495A1 22-138)
# T1 construct: Bought protein; NP_776160.2; also called human TIGIT antigen; hTIGIT
# T1 sequence: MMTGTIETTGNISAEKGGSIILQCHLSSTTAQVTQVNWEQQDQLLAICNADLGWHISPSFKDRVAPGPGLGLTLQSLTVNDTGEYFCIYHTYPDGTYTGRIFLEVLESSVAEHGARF
# assay.remarks: SPR (Biacore T200), single cycle kinetics, IgG from supernatant captured on anti-human chip, TIGIT as analyte, 1:1 fit;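 note: measured at 25 °C in HBS-P+ with 1% BSA, four ascending TIGIT concentrations, 210 s association per step, one final 900 s dissociation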
quantity.name: koff (s⁻¹)

binder="7A6 VH1/Vκ3 humanized antibody (human IgG1, kappa) (antibody, V domains shown, Tested as IgG in supernatant of transiently transfected HEK293 EBNA cells) VH: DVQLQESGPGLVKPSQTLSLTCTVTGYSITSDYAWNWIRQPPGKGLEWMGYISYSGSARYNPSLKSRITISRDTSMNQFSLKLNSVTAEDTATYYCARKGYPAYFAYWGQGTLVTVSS VL: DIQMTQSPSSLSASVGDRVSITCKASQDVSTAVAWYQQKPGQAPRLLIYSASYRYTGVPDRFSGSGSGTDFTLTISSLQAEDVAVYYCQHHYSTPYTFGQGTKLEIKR" quantity_name=koff data_value=0.00182
binder="7A6 VH2/Vκ1 humanized antibody (human IgG1, kappa) (antibody, V domains shown, Tested as IgG in supernatant of transiently transfected HEK293 EBNA cells) VH: DVQLQESGPGLVKPSQTLSLTCTVTGYSITSDYAWNWIRQPPGKGLEWMGYISYSGSARYNPSLKSRITISRDTSKNQFSLKLSSVTAEDTATYYCARKGYPAYFAYWGQGTLVTVSS VL: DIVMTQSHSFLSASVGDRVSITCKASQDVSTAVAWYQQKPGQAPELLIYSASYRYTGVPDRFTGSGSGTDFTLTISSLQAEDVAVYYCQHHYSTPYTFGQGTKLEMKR" quantity_name=koff data_value=0.00168

Cited source: patent US20250064909A1
